Ref: the supplement of paper PMC9170038

# Test system: MS2 coat protein
# assay.method.text: apparent KD of MS2 coat protein; higher = weaker reporter binding
# cond: Eterna round: R107; input ligand: theophylline 2 mM
Reported apparent KD of MS2 coat protein values for the following sequences.
Response body: numeric value in nM, unit text excluded.

For orientation, consider the following solved cases.
# item.sequence, apparent KD of MS2 coat protein (nM)
records = [
    ("UAUAUAGAAGGAAGUCAUAUAGUUGCAGAAGGAGCGUAGGAAACUACAGGUAGGUCGCUGAGGUACAUGAGGAUCACCCAUGUAG [SSArg A #16 Slice of Pi]", 29.7),
    ("UGUAUGGACUGAAGGAGCGCCUCAAAAUAGCAUGAGGAACACCCAUGCAAGGCGAAAGCCGGGCAGGUAGGUCGCAGUCCAUACU [ArgBX 3]", 27.2),
    ("CUGUACAUCUCGGCCGCCACUGCUGACAUGGGAGUCACCCAUGUCCACAUGAGGAUCACCCAUGUCAGGACCGGGAGGUGUGCAG [SSTryp B #25]", 287),
    ("ACGUAAUGCAGAAGGAGCGUCAUUUUAAAACAUGAGGAUCACCCAUGUAAUAUUUUUGUGUGACAGGUAGGUCGCUGAAGUACGA [JR_SSArginiB_Sub007]", 14.4),
]

Bench note, MS2 coat protein: GUCCUCAGCCGAAGGAGCGCUAGAAGGUGACAUGAGGAUCACCCAUGUGUGUGAUGUGGCUAGCAGGUAGGUCGCGGAGAGGAUU [Exclusion - Arginine B (Freestyle 17)] , apparent KD of MS2 coat protein reads 127

Bench note, MS2 coat protein: ACAUGAGGAUCACCCAUGUGUGUAAAUCCUCGAGGACCGGUACGGCCGCCACUCGAUUGAGUGUAAGUUGAAUGUAACAUUCAAC [whbob_SS_trypto A_2s9] , apparent KD of MS2 coat protein reads 144

Bench note, MS2 coat protein: AGUCUUGAACGAAGGAGCGACGUACAUGAGGAUCACCCAUGUGGGAGCGAAAGCUCCUAACGUCAGGUAGGUCGCGUUCGAGACA [Omei Arginine B SS A v1] , apparent KD of MS2 coat protein reads 16.2

Bench note, MS2 coat protein: GGACUAACCAGAAGGAGCGGCACGCAGAAACUGCAAAUUCCUCCGCACGAGGAUCACCCGUGUCAGGUAGGUCGCUGGUUAGUCG [ArgBX 28] , apparent KD of MS2 coat protein reads 24

Bench note, MS2 coat protein: GUAUUAACAAAAGUUGAUACAGUGGGUGAACGAGGACCGGUACGGCCGCCACUCGGACAUGAGGAUCACCCAUGUCCAUGUGAAA [AstrosExyTryA#12] , apparent KD of MS2 coat protein reads 17.2

Bench note, MS2 coat protein: CCUAUGCAGUCGGCCGCCACUGAGUCCUCAAUAAUAAAUUAUUAUACAUGAGGAUCACCCAUGUACAGGACCGGGACUGUAUAGG [Ex Tryptophan B 14] , apparent KD of MS2 coat protein reads 237

Bench note, MS2 coat protein: UUUAUUUAUUUAUUUAUUUAUUUAACAGAAGGAGCGUGGAUUAACACAGGUAGGUCGCUGACAUGAGGAUCACCCAUGUAUUAUU [SSAA #1] , apparent KD of MS2 coat protein reads 41.6

Bench note, MS2 coat protein: UGAUUGAACGGAAGGAGCGUGUAAGAACAAGAACAUGAGGAUCACCCAUGUAUUAAUUUAACACAGGUAGGUCGCCGAGAGAUUG [11.D] , apparent KD of MS2 coat protein reads 14
